Biological target: T1, Human BCMA (human, UniProt Q02223 1-54, limits assumed)
T1 construct: also called huBCMA; B-cell maturation antigen
T1 sequence (looked up): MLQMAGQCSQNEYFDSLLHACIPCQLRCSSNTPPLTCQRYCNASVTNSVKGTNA
Test: SPR, IgG immobilised, human BCMA analyte
Experimental: All experiments were performed on a Bio-Rad Proteon XPR36 surface Plasmon resonance biosensor (Bio-Rad, Hercules, Calif.). […] The analysis temperature for the immobilization was 25° C. and the running buffer was HBS-T+(10 mM HEPES, 150 mM NaCl, 0.05% Tween-20, pH 7.4). […] The analysis temperature for the BCMA binding analysis was 37° C. or 25° C. in a running buffer of HBS-T+, supplemented with 1 mg/mL BSA. […] Immediately after the 50 nM BCMA injection, dissociation was monitored for 2 hours. […]
Assignment: determine reported Kd for the given binders.
Output spec: scalar in nM, unitless text.

[in] What does the data say about its Kd? Entry: C01_Rd4_0.6nM_C09 (antibody, V domains shown, IgG) VH: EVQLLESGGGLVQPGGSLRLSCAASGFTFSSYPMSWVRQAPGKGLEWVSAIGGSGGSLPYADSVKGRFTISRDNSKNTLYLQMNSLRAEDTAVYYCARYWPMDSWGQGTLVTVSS VL: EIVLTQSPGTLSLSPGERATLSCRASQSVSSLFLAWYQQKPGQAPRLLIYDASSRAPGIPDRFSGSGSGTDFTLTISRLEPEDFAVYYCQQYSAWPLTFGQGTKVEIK
[out] 0.545

[in] What does the data say about its Kd? Entry: A02_Rd4_0.6nM_C13 (antibody, V domains shown, IgG) VH: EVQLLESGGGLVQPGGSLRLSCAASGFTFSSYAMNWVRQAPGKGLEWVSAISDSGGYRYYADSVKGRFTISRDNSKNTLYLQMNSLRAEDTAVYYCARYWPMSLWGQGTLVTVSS VL: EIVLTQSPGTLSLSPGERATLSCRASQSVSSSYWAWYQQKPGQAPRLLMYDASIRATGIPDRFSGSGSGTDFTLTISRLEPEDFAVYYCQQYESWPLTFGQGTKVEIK
[out] 0.066

[in] What does the data say about its Kd? Entry: C01_Rd4_6nM_C10 (antibody, V domains shown, IgG) VH: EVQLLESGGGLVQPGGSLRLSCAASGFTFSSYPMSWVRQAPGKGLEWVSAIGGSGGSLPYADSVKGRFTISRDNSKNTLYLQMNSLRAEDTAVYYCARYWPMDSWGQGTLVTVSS VL: EIVLTQSPGTLSLSPGERATLSCRASQSVSSVYLAWYQQKPGQAPRLLIYDASSRAPGIPDRFSGSGSGTDFTLTISRLEPEDFAVYYCQQYSTWPLTFGQGTKVEIK
[out] 0.162

Ref: patent US20160297884A1
